Molecular target: ABCB1 (P-glycoprotein) efflux pump (Homo sapiens, UniProt P08183)
Sequence (P08183 whole entry): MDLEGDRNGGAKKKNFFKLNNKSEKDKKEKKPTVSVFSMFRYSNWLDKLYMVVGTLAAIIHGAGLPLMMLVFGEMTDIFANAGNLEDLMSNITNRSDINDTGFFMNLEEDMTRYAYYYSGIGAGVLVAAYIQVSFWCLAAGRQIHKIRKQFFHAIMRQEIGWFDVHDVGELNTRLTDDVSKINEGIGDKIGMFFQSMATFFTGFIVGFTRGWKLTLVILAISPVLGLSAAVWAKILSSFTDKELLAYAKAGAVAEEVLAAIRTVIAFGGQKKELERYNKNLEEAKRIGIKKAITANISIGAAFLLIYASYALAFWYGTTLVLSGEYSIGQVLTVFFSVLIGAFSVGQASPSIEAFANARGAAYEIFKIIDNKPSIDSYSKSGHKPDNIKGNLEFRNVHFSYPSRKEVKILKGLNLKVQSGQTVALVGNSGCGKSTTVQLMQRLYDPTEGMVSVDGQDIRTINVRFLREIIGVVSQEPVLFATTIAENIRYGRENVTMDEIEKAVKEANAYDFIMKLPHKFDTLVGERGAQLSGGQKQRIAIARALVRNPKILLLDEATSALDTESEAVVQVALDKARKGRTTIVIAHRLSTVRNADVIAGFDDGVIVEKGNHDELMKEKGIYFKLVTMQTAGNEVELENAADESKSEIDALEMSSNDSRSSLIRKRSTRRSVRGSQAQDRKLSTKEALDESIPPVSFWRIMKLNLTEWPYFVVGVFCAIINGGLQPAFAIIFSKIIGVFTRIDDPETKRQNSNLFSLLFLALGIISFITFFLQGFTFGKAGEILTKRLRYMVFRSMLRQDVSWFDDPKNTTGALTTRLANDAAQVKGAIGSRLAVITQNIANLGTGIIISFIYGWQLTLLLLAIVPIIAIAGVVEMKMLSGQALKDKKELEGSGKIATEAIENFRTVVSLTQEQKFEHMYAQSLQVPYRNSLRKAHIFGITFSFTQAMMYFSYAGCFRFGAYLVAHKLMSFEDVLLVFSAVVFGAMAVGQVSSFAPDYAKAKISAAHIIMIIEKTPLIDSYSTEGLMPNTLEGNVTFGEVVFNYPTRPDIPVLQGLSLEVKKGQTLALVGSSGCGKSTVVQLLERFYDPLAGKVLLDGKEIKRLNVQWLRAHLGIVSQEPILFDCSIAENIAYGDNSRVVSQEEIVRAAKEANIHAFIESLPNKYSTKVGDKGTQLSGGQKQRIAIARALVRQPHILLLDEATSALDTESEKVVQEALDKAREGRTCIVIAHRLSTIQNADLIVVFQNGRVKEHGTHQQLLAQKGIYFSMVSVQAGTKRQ
Assay: Rhodamine 123 uptake/retention fluorescence assay (flow cytometry) in Colo 320 cells
Conditions: Colo 320, rhodamine 123, 20 μM
Reported FL-1 mean fluorescence of the cells is given for each of the following molecules.
Quick one: just the number, no unit, thanks!

- Cc1ccc(C(C)C)cc1.O=C(C=C([O-])C(F)(F)F)c1ccc(Cl)cc1.[Cl-].[Ru+2]: 6.94

**Q:** Item under review: Cc1ccc(C(C)C)cc1.[Cl-].[O-]c1c(I)cc(Cl)c2cccnc12.[Ru+2] . Reported FL-1 mean fluorescence of the cells?
**A:** 19.3

**Q:** Look up FL-1 mean fluorescence of the cells for this molecule: C1N2CN3CN1CP(C2)C3.Cc1ccc(C(C)C)cc1.F[P-](F)(F)(F)(F)F.[O-]n1ccccc1=S.[Ru+2]
**A:** 5.41

**Q:** Find the recorded FL-1 mean fluorescence of the cells belonging to C1N2CN3CN1CP(C2)C3.Cc1ccc(C(C)C)cc1.F[P-](F)(F)(F)(F)F.[O-]n1ccc2ccccc2c1=S.[Ru+2] and report it.
**A:** 8.95

**Q:** // lookup FL-1 mean fluorescence of the cells for C1N2CN3CN1CP(C2)C3.Cc1ccc(C(C)C)cc1.F[P-](F)(F)(F)(F)F.O=C(C=C([O-])C(F)(F)F)c1ccc(Cl)cc1.[Ru+2]
**A:** 5.68

====

Tested on: Colo 205 chemo-sensitive human colonic adenocarcinoma cell line
Assay: MTT cytotoxicity assay, Colo 205
Format: cell-based
Settings: ratio of the indicated IC50 values
Form field: S.I. MRC-5/Colo 205 (one value per entry).

The examples below pair each entry with its known result.
• N.N.[Cl][Pt][Cl] [cisplatin, reference compound] = 0.03
• Cc1ccc(C(C)C)cc1.[Cl-].[O-]c1c(I)cc(Cl)c2cccnc12.[Ru+2] = 0.14

**Q:** Query (compound): Cc1ccc(C(C)C)cc1.O=C(C=C([O-])C(F)(F)F)c1ccc(Cl)cc1.[Cl-].[Ru+2] ; field requested: S.I. MRC-5/Colo 205
**A:** 0.51

====

This listing pairs compounds with measured SSC side scatter count.
Target: ABCB1 (P-glycoprotein) efflux pump (Homo sapiens, UniProt P08183)
Assay: Rhodamine 123 uptake/retention fluorescence assay (flow cytometry) in Colo 320 cells
Conditions: Colo 320, 2 μM

* Cc1ccc(C(C)C)cc1.O=C(C=C([O-])C(F)(F)F)c1ccc(Cl)cc1.[Cl-].[Ru+2] [complex 7] | 946

**Q:** // lookup SSC side scatter count | system=ABCB1 (P-glycoprotein) efflux pump (Homo sapiens, UniProt P08183) | key= C1N2CN3CN1CP(C2)C3.Cc1ccc(C(C)C)cc1.F[P-](F)(F)(F)(F)F.[O-]n1ccc2ccccc2c1=S.[Ru+2] [complex 4]
**A:** 959

**Q:** Look up SSC side scatter count with ABCB1 (P-glycoprotein) efflux pump (Homo sapiens, UniProt P08183) for this compound: C1N2CN3CN1CP(C2)C3.Cc1ccc(C(C)C)cc1.F[P-](F)(F)(F)(F)F.[O-]n1ccccc1=S.[Ru+2] [complex 2]
**A:** 962

**Q:** Lookup: SSC side scatter count / ABCB1 (P-glycoprotein) efflux pump (Homo sapiens, UniProt P08183) / Cc1ccc(C(C)C)cc1.[Cl-].[O-]c1c(I)cc(Cl)c2cccnc12.[Ru+2] [complex 5]
**A:** 840

**Q:** Param readout= SSC side scatter count; system= ABCB1 (P-glycoprotein) efflux pump (Homo sapiens, UniProt P08183); entry= C1N2CN3CN1CP(C2)C3.Cc1ccc(C(C)C)cc1.F[P-](F)(F)(F)(F)F.O=C(C=C([O-])C(F)(F)F)c1ccc(Cl)cc1.[Ru+2] [complex 8] ; returns value.
**A:** 877

====

Entries and their measured FAR quotient (FAR related to that of 20 μM verapamil) follow.
Molecular target: ABCB1 (P-glycoprotein) efflux pump (Homo sapiens, UniProt P08183)
Assay: Rhodamine 123 uptake/retention fluorescence assay (flow cytometry) in Colo 320 cells
Settings: Colo 320, 20 μM
Respond numerically; units are % and should not be typed.

Sample records with FAR quotient (FAR related to that of 20 μM verapamil):
- Cc1ccc(C(C)C)cc1.[Cl-].[O-]c1c(I)cc(Cl)c2cccnc12.[Ru+2]: 76.0
- C1N2CN3CN1CP(C2)C3.Cc1ccc(C(C)C)cc1.F[P-](F)(F)(F)(F)F.[O-]n1ccccc1=S.[Ru+2]: 21.3
- C1N2CN3CN1CP(C2)C3.Cc1ccc(C(C)C)cc1.F[P-](F)(F)(F)(F)F.[O-]n1ccc2ccccc2c1=S.[Ru+2]: 35.2
- C1N2CN3CN1CP(C2)C3.Cc1ccc(C(C)C)cc1.F[P-](F)(F)(F)(F)F.O=C(C=C([O-])C(F)(F)F)c1ccc(Cl)cc1.[Ru+2]: 22.4

Continue with the compound presented below.
**Q:** What does the data say about its FAR quotient (FAR related to that of 20 μM verapamil)? Entry: Cc1ccc(C(C)C)cc1.O=C(C=C([O-])C(F)(F)F)c1ccc(Cl)cc1.[Cl-].[Ru+2]
**A:** 27.3

====

Target: ABCB1 (P-glycoprotein) efflux pump (Homo sapiens, UniProt P08183)
Assay: Rhodamine 123 uptake/retention fluorescence assay (flow cytometry) in Colo 320 cells
Settings: Colo 320, 20 μM
Listed here are compounds together with their documented FAR fluorescence accumulation ratio.
# respond with the number and nothing more

* Cc1ccc(C(C)C)cc1.[Cl-].[O-]c1c(I)cc(Cl)c2cccnc12.[Ru+2] [complex 5] | 3.66
* C1N2CN3CN1CP(C2)C3.Cc1ccc(C(C)C)cc1.F[P-](F)(F)(F)(F)F.O=C(C=C([O-])C(F)(F)F)c1ccc(Cl)cc1.[Ru+2] [complex 8] | 1.08
* Cc1ccc(C(C)C)cc1.O=C(C=C([O-])C(F)(F)F)c1ccc(Cl)cc1.[Cl-].[Ru+2] [complex 7] | 1.31
* C1N2CN3CN1CP(C2)C3.Cc1ccc(C(C)C)cc1.F[P-](F)(F)(F)(F)F.[O-]n1ccc2ccccc2c1=S.[Ru+2] [complex 4] | 1.70

Now take the following compound into account.
**Q:** Entry under review: C1N2CN3CN1CP(C2)C3.Cc1ccc(C(C)C)cc1.F[P-](F)(F)(F)(F)F.[O-]n1ccccc1=S.[Ru+2] [complex 2] . Reported FAR fluorescence accumulation ratio?
**A:** 1.02

====

Biological target: ABCB1 (P-glycoprotein) efflux pump (Homo sapiens, UniProt P08183)
Experiment: Rhodamine 123 uptake/retention fluorescence assay (flow cytometry) in Colo 320 cells
Conditions: Colo 320, 20 μM
Reported SSC side scatter count values follow for various molecules
// no unit string in output, number only

* C1N2CN3CN1CP(C2)C3.Cc1ccc(C(C)C)cc1.F[P-](F)(F)(F)(F)F.[O-]n1ccc2ccccc2c1=S.[Ru+2] [complex 4] | 973
* C1N2CN3CN1CP(C2)C3.Cc1ccc(C(C)C)cc1.F[P-](F)(F)(F)(F)F.O=C(C=C([O-])C(F)(F)F)c1ccc(Cl)cc1.[Ru+2] [complex 8] | 917

**Q:** Fill in the blank: the reported SSC side scatter count of Cc1ccc(C(C)C)cc1.O=C(C=C([O-])C(F)(F)F)c1ccc(Cl)cc1.[Cl-].[Ru+2] [complex 7] is ____.
**A:** 900

**Q:** Dear colleague, I am looking for the recorded SSC side scatter count of the following molecule: C1N2CN3CN1CP(C2)C3.Cc1ccc(C(C)C)cc1.F[P-](F)(F)(F)(F)F.[O-]n1ccccc1=S.[Ru+2] [complex 2]
**A:** 1024

**Q:** Find the recorded SSC side scatter count belonging to Cc1ccc(C(C)C)cc1.[Cl-].[O-]c1c(I)cc(Cl)c2cccnc12.[Ru+2] [complex 5] and report it.
**A:** 877
